read-out: Macrophage colony-stimulating factor (MCSF), CSF1 (gene 1435); experiment: BSK_CASM3C_MCSF: BioMAP Diversity Plus: CASM3C Assay for Macrophage colony-stimulating factor (MCSF) Biomarker Activity (AID 2283044); conditions: primary human coronary artery smooth muscle cells; actives raise or lower the signal;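 also: M-CSF protein amount quantified by ELISA after 24 h exposure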
Calls of active or inactive are those of the source. The calls were made as follows: active = hit-call score of the fitted dose curve at least 0.9, where 1 is the maximum; inactive = score below 0.9.
Pick one: active, inactive

Observe how each entry below is paired with its result.
O=C(Nc1ccccc1SSc1ccccc1NC(=O)c1ccccc1)c1ccccc1: inactive
O=C(Cl)c1cc(C(=O)Cl)cc(C(=O)Cl)c1: active
CO[Si](OC)(OC)c1ccccc1: inactive

# outcome recorded in this test, key = CCCCC(CC)COCC1CO1 (stereo unspecified)
inactive

# outcome recorded in this test, key = C=CCOCC(O)CCl (stereo unspecified)
inactive

# outcome recorded in this test, key = "C=CC=CC=CCCCCC"
inactive

# outcome recorded in this test, key = "CCCCNc1ccc(NCCCC)c2c1C(=O)c1ccccc1C2=O"
inactive

# outcome recorded in this test, key = "CCCCCCCCc1ccc(Nc2ccc(CCCCCCCC)cc2)cc1"
inactive

# outcome recorded in this test, key = "CC(C)(c1cc(Br)c(OCCO)c(Br)c1)c1cc(Br)c(OCCO)c(Br)c1"
active

# outcome recorded in this test, key = "CCCCCCCCCCCCCCCC[N+](C)(C)CC"
active

# outcome recorded in this test, key = C=CC(=O)OCC(Br)CBr (stereo unspecified)
active

---

test: ATG_BRE_CIS: Attagene CIS-FACTORIAL HepG2 Assay for human Bone Morphogenetic Protein (BMP) Response Element (BRE) (AID 2282933); details: HepG2 BMP response element reporter, Attagene transcription factor profiling; actives raise or lower the signal
The source made the active and inactive calls. How the source made its calls: active means hit-call score of the fitted dose curve at least 0.9, where 1 is the maximum; inactive means score below 0.9.
Pick one: active, inactive

# outcome recorded in this test, key = "Cn1c(=O)[nH]c2ncn(C)c2c1=O"
inactive

---

experiment: CCTE_Shafer_MEA_acute_synchrony_index: CCTE's Neural Acute Assay for Synchrony, Shafer Lab (AID 2284027);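 also: network synchrony index of spontaneous spiking in primary rat cortical neurons on MEAs; fitted for loss of signal so actives lower synchrony relative to DMSO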
The source made the active and inactive calls. The calls were made as follows: active = hit-call score of the fitted dose curve at least 0.9, where 1 is the maximum; inactive = score below 0.9.
quantity-name: outcome

Nc1ccc(N)c(Cl)c1: inactive
O=C1CCCN1CCO: inactive
CCCCC(CC)COC(=O)c1ccccc1O (stereo not drawn): inactive

---

assay: BSK_3C_Proliferation: Cell Proliferation Assessment in the BioMAP Diversity Plus: 3C Assay (AID 2283006); conditions: primary human endothelial cells (HUVEC)
Activity calls are given as the source filed them. The calls were made as follows: active = hit-call score of the fitted dose curve at least 0.9, where 1 is the maximum; inactive = score below 0.9.
Pick one: YES (active), NO (inactive)

Observe how each entry below is paired with its result.
C=CC=CC=CCCCCC: NO
O=C1CCCN1CCO: NO
CCOc1nc(F)cc2nc(S(=O)(=O)Nc3c(Cl)cccc3C(=O)OC)nn12: NO
CCCCCCCCCCCCCCCC[N+](C)(C)CC: YES
C=C[Si](OC(C)=O)(OC(C)=O)OC(C)=O: NO

Below: the item to evaluate.
# outcome recorded in this test, key = "c1ccc2c(c1)ccc1ncccc12"
YES

---

read-out: Plasminogen activator inhibitor-1 (PAI1), SERPINE1 (gene 5054); test: BSK_hDFCGF_PAI1: BioMAP Diversity Plus: hDFCGF Assay for Plasminogen activator inhibitor-1 (PAI1) Biomarker Activity (AID 2283066); details: primary human foreskin fibroblasts; actives raise or lower the signal
Activity calls are given as the source filed them. The calls were made as follows: active = hit-call score of the fitted dose curve at least 0.9, where 1 is the maximum; inactive = score below 0.9.
quantity-name: AC50

Observe how each entry below is paired with its result.
CCCCCCCCCCCCCCCC[N+](C)(C)CC: 1.53 µM (active)
c1ccc(-c2ccccn2)nc1: inactive
O=C(Cl)c1cc(C(=O)Cl)cc(C(=O)Cl)c1: 29.8 µM (active)
c1ccc2c(c1)ccc1ncccc12: inactive
CCO[Si](CCCN=C=O)(OCC)OCC: inactive
O=C(c1ccc(O)cc1)c1ccc(O)cc1O: inactive

Kindly review the next compound as well.
I am curious: what AC50 value has been reported for CCCCC(CC)COC(=O)c1ccccc1O (configuration not stated) ?
7.32 µM (active)
